target: ACAT2 (Mus musculus, UniProt O88908); construct: The resulting sediment was collected as a microsome fraction; from tissue; host or cells: mouse liver (hepatic microsome membrane fraction); experiment: Measurement of ACAT2-inhibiting activity (murine hepatic microsome, [14C]cholesteryl oleate formation); assay type: biochemical; conditions: murine hepatic microsome membrane fraction, 5 min at 37° C.; read-out: Inhibitory activity (concentration required for 50% inhibition of ACAT 2 = IC50)
Sequence (O88908 whole entry): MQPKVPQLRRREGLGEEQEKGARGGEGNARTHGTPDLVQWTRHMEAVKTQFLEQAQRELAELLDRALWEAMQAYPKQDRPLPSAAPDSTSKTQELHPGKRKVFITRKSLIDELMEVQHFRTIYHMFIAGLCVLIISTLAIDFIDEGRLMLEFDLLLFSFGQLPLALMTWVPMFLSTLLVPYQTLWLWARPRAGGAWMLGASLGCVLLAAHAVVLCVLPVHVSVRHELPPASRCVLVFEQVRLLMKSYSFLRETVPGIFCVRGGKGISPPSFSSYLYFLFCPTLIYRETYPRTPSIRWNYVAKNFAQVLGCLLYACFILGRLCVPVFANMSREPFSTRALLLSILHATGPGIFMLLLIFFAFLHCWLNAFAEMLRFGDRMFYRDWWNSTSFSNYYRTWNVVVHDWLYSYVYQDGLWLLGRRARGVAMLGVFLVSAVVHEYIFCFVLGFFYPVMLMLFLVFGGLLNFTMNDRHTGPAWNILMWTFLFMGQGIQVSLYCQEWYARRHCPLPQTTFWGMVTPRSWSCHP
pIC50: −log10 of the molar value.
Assay Metric: pIC50

CC1(COC(=O)c2ccccc2)C2C[C@H](OC(=O)c3ccc(C#N)cc3)[C@@]3(C)Oc4cc(-c5cccnc5)oc(=O)c4[C@H](O)C3[C@@]2(C)CC[C@@H]1OC(=O)c1ccccc1 (stereo partly drawn) [PRD166]; 9.00 to 9.30
CC12CO[C@@H](c3ccccc3)O[C@H]1CC[C@@]1(C)C2C[C@H](OC(=O)c2ccccc2)[C@@]2(C)Oc3cc(-c4cccnc4)oc(=O)c3[C@H](O)C12 (stereo partly drawn) [PRD122]; 9.00 to 9.30
CC12CO[C@@H](c3ccccc3)O[C@H]1CC[C@@]1(C)C2C[C@H](OC(=O)C2CCCCC2)[C@@]2(C)Oc3cc(-c4cccnc4)oc(=O)c3[C@H](O)C12 (stereo partly drawn) [PRD080]; 9.00 to 9.30

Ask | Requested read-out pIC50, target or system ACAT2 (Mus musculus, UniProt O88908), entry CC12CO[C@@H](c3cccc4ccccc34)O[C@H]1CC[C@@]1(C)C2C[C@H](OC(=O)c2ccc(C#N)cc2)[C@@]2(C)Oc3cc(-c4cccnc4)oc(=O)c3[C@H](O)C12 (stereo partly drawn) [PRD180]
Reply | 8.00 to 9.00

Ask | Requested read-out pIC50, target or system ACAT2 (Mus musculus, UniProt O88908), entry CC(=O)O[C@H]1CC[C@@]2(C)C(C[C@H](OC(=O)c3ccc(C#N)cc3)[C@@]3(C)Oc4cc(-c5cccnc5)oc(=O)c4[C@H](O)C23)C1(C)COC(=O)c1ccccc1 (stereo partly drawn) [PRD143]
Reply | 9.00 to 9.30
